System: recombinant human PAD2 (human, UniProt Q9Y2J8 1-665)
Sequence (Q9Y2J8 whole entry): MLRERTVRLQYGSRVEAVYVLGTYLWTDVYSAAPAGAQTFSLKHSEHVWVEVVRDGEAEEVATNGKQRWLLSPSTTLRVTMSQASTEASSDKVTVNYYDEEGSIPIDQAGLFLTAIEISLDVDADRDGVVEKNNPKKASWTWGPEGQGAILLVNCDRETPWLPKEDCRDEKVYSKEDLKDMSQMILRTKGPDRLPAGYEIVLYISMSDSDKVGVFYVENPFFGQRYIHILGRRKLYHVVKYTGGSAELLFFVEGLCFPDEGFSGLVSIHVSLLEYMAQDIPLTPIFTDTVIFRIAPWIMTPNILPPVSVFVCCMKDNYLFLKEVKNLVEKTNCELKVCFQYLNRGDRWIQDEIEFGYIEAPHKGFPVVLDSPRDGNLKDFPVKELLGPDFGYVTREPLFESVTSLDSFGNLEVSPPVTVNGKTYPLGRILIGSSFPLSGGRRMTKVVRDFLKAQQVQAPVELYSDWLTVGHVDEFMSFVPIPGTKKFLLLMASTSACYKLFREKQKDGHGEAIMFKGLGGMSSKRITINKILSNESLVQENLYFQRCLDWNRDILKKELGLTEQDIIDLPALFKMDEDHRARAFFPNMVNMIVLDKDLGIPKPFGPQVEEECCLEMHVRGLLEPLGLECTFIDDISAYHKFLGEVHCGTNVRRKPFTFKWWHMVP
Assay protocol: cell-based or functional assay
Numbered stars: 1 amine (or outer) side, 2 acyl side, 3 side chain; on linkers, the order of the positions; unused ones are H or OH. Square brackets hold non-standard residues; d marks the D form. Ends that are not written are not given here. O(CA) = ornithine chloroamidine, N=C(CCl)NCCC[C@H](N[*:1])C(=O)[*:2]; Orn(fluoroacetimidoyl) = N=C(CF)NCCC[C@H](N)C(=O)O
# YES = IC50 values (µM), ABAP PAD activity assay, second round below 40 µM (exclusive); NO = IC50 values (µM), ABAP PAD activity assay, second round at/above 40 µM

1) YD[O(CA)]GS [Y-D-O(CA)-G-S]	NO
2) KFD[Orn(fluoroacetimidoyl)]DFI [K F D O(FA) D F I]	YES

Does the reported IC50 values (µM), ABAP PAD activity assay, second round of TD[Orn(fluoroacetimidoyl)]GS [T-D-O(FA)-G-S] stay below 40 µM?
NO

Dear colleague, could you confirm whether IC50 values (µM), ABAP PAD activity assay, second round of KWH[Orn(fluoroacetimidoyl)]DFF [K W H O(FA) D F F] falls below 40 µM? Thanks.
YES

Is IC50 values (µM), ABAP PAD activity assay, second round strictly under 40 µM for the entry GD[O(CA)]GS [G-D-O(CA)-G-S] ?
YES
